System: HaCat
protocolDescription: Cytotoxic Profiling of Annotated Libraries Using Quantitative High-Throughput Screening (AID 1296008); also: % is scaled to controls: 0 for no effect and ±100 for the full control effect; nearly all actives have a fitted effect of over 60% in size
conditionNotes: Five cell lines viability, CellTiter-Glo ATP luminescence, 48-72 h; hits give low values
Records with an inconclusive call do not appear.
Recorded measurements of max response, one per entry
Please state the figure in %; there is no need to write the unit.

Some compounds with known max response results, for comparison:
# compound, measuredAttribute, obsValue
data = [
    ("COC(=O)c1cc(Br)cnc1N1CCC(NC2CCCCC2)C(O)C1 (stereo not given)", "max response", -7.79),
    ("O=C(N[C@H]1CCN(C(=O)c2cc(C(F)(F)F)cc(C(F)(F)F)c2)[C@H](Cc2ccc(Cl)cc2)C1)c1ccnc2ccccc12", "max response", -2.45),
    ("CC(=O)NC(C(=O)O[C@H]1CCC(C)(C)[C@@H]2CC=C3C(=O)OCC3(O)[C@@]12C)C(C)C (stereo not given in full)", "max response", 3.16),
]

For the compound shown here, CNC(=O)c1cc(Oc2ccc(NC(=O)c3cccc(C(F)(F)F)c3)cc2)ccn1 , give the reported max response. -5.26

For the compound shown here, CN(C)[C@@H]1CCc2[nH]c3ccc(NC(=O)c4ccc(F)cc4)cc3c2C1 , give the reported max response. -11.8
